All figures here come from PubChem BioAssay AID1963442.

Each entry below carries its recorded viability, T/C.
test system: MPNST complex spheroid with HUVEC/MSC, growth, % test/control; assay: Anticancer human tumor MPNST cell line growth inhibition [Asc]; settings: second compound 3 µM; first compound 10 µM; stronger effect = lower value;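 further: compounds left on spheroids for seven days before reading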
// return numeric value only (unit: %, not printed)

| compound | viability, T/C / % |
| --- | --- |
| C#Cc1c(F)ccc2cc(O)cc(-c3ncc4c(N5CC6CCC(C5)N6)nc(OCC56CCCN5CC(F)C6)nc4c3F)c12 (centres undefined) + CCN1C(C(=O)NC23CCC(C(=O)O)(CC2)CC3)C(c2cccc(Cl)c2F)C2(C(=O)Nc3cc(Cl)ccc32)C12CCCCC2 | 68.8 |
| C=C(F)C(=O)N1CCN(c2nc(OCC3CCCN3C)nc3c2CCN(c2cccc4cccc(Cl)c24)C3)CC1CC#N (centres undefined) + CCN1C(C(=O)NC23CCC(C(=O)O)(CC2)CC3)C(c2cccc(Cl)c2F)C2(C(=O)Nc3cc(Cl)ccc32)C12CCCCC2 | 42.7 |
| C=CC(=O)N1CCN(c2nc(=O)n(-c3c(C)ccnc3C(C)C)c3nc(-c4c(O)cccc4F)c(F)cc23)C(C)C1 (centres undefined) + CCN1C(C(=O)NC23CCC(C(=O)O)(CC2)CC3)C(c2cccc(Cl)c2F)C2(C(=O)Nc3cc(Cl)ccc32)C12CCCCC2 | 89.1 |

Please find the next compound below.
Note to self: viability, T/C recorded for O=C(c1cc(Cc2n[nH]c(=O)c3ccccc23)ccc1F)N1CCN(C(=O)C2CC2)CC1 + CCN1C(C(=O)NC23CCC(C(=O)O)(CC2)CC3)C(c2cccc(Cl)c2F)C2(C(=O)Nc3cc(Cl)ccc32)C12CCCCC2 was 72.2
